viability inhibition at highest dose values, listed per item
tested on: ZR-75-1; test: viability inhibition at highest dose (% inhibition); higher = more growth inhibition; settings: 4-OH-tamoxifen in medium 0 µM; 72 h
Please give the numeric answer without any surrounding text.

These solved cases illustrate the format of a correct answer.
INPUT: Quick one: viability inhibition at highest dose for Cn1c(=O)n(-c2ccc(C(C)(C)C#N)cc2)c2c3cc(-c4cnc5ccccc5c4)ccc3ncc21 [Dactolisib (NVP-BEZ235)] (drug 1000 nM) ?
OUTPUT: 51

INPUT: Quick one: viability inhibition at highest dose for Cn1cnc2c(F)c(Nc3ccc(Br)cc3F)c(C(=O)NOCCO)cc21 [MEK-162 (ARRY-162)] (drug 1000 nM) ?
OUTPUT: -6.09

INPUT: Quick one: viability inhibition at highest dose for O=C(O)CCCc1ccc(N(CCCl)CCCl)cc1 [Chlorambucil] (drug 10000 nM) ?
OUTPUT: -4.67

INPUT: Quick one: viability inhibition at highest dose for Cc1ccc(NC(=O)c2ccc(CN3CCN(C)CC3)cc2)cc1Nc1nc(-c2cccnc2)cs1 [Masitinib] (drug 10000 nM) ?
OUTPUT: 9.35

INPUT: Quick one: viability inhibition at highest dose for S=c1[nH]cnc2nc[nH]c12 [Mercaptopurine] (drug 10000 nM) ?
OUTPUT: 39.5

More entries:
INPUT: Quick one: viability inhibition at highest dose for CC[C@]1(O)C[C@@H]2CN(CCc3c([nH]c4ccccc34)[C@@](C(=O)OC)(c3cc4c(cc3OC)N(C)[C@H]3[C@@](O)(C(=O)OC)[C@H](OC(C)=O)[C@]5(CC)C=CCN6CC[C@]43[C@@H]65)C2)C1 [Vinblastine] (drug 1000 nM) ?
OUTPUT: 24.6

INPUT: Quick one: viability inhibition at highest dose for NC(=O)c1ccc(I)c([N+](=O)[O-])c1 (drug 10000 nM) ?
OUTPUT: -1.66

* * *

viability inhibition at highest dose values, listed per item
tested on: T-47D; experiment: viability inhibition at highest dose (% inhibition); higher = more growth inhibition; details: 4-OH-tamoxifen in medium 0 µM; 72 h
Please give the numeric answer without any surrounding text.

INPUT: Quick one: viability inhibition at highest dose for COc1cc([C@@H]2c3cc4c(cc3[C@@H](O[C@@H]3O[C@@H]5CO[C@@H](c6cccs6)O[C@H]5[C@H](O)[C@H]3O)[C@H]3COC(=O)[C@H]23)OCO4)cc(OC)c1O [Teniposide] (drug 10000 nM) ?
OUTPUT: 54.1

More entries:
INPUT: Quick one: viability inhibition at highest dose for COc1cc2ncnc(Nc3ccc(F)c(Cl)c3)c2cc1OCCCN1CCOCC1 [Gefitinib] (drug 10000 nM) ?
OUTPUT: 12.1

INPUT: Quick one: viability inhibition at highest dose for CC(C)C[C@H](NC(=O)[C@H](CCc1ccccc1)NC(=O)CN1CCOCC1)C(=O)N[C@@H](Cc1ccccc1)C(=O)N[C@@H](CC(C)C)C(=O)[C@@]1(C)CO1 [Carfilzomib] (drug 1000 nM) ?
OUTPUT: 86.2

INPUT: Quick one: viability inhibition at highest dose for C=CC(=O)N1CCC[C@@H](n2nc(-c3ccc(Oc4ccccc4)cc3)c3c(N)ncnc32)C1 (drug 1000 nM) ?
OUTPUT: -1.5

INPUT: Quick one: viability inhibition at highest dose for CN(C)C[C@@H]1CCn2cc(c3ccccc32)C2=C(C(=O)NC2=O)c2cn(c3ccccc23)CCO1 (drug 10000 nM) ?
OUTPUT: 72.1

INPUT: Quick one: viability inhibition at highest dose for C[C@@]1(C(=O)Nc2ccc(F)nc2)CCCN1c1nc(Nc2cc(C3CC3)n[nH]2)c2cccn2n1 (drug 10000 nM) ?
OUTPUT: 48.6

* * *

test system: ZR-75-1 Tam2; experiment: drug sensitivity score (DSS) (DSS (dimensionless)); higher = more sensitive; extreme values may be limits of the assay; settings: 4-OH-tamoxifen in medium 1 µM; 72 h
Quantity Kind: drug sensitivity score
Please give the numeric answer without any surrounding text.

INPUT: Quick one: drug sensitivity score for c1cc(CN2CCCNCCNCCCNCC2)ccc1CN1CCCNCCNCCCNCC1 ?
OUTPUT: 0

INPUT: Quick one: drug sensitivity score for CS(=O)(=O)N1CCN(Cc2cc3nc(-c4cccc5[nH]ncc45)nc(N4CCOCC4)c3s2)CC1 ?
OUTPUT: 12.1

INPUT: Quick one: drug sensitivity score for O=C(O)CC[C@H]1CC[C@@](c2cc(F)ccc2F)(S(=O)(=O)c2ccc(Cl)cc2)CC1 ?
OUTPUT: 0

Kindly review the next compound as well.
INPUT: Quick one: drug sensitivity score for C[C@]12CC[C@@H]3c4ccc(O)cc4C[C@@H](CCCCCCCCC[S+]([O-])CCCC(F)(F)C(F)(F)F)[C@H]3[C@@H]1CC[C@@H]2O (some centres undefined) ?
OUTPUT: 0

* * *

drug sensitivity score values, listed per item
test system: MCF-7; assay: drug sensitivity score (DSS) (DSS (dimensionless)); higher = more sensitive; extreme values may be limits of the assay; conditions: 4-OH-tamoxifen in medium 1 µM; 72 h

INPUT: Quick one: drug sensitivity score for C=CC[C@@H]1/C=C(\C)C[C@H](C)C[C@H](OC)[C@H]2O[C@@](O)(C(=O)C(=O)N3CCCC[C@H]3C(=O)O[C@H](/C(C)=C/[C@@H]3CC[C@@H](O)[C@H](OC)C3)[C@H](C)[C@@H](O)CC1=O)[C@H](C)C[C@@H]2OC ?
OUTPUT: 3.51

INPUT: Quick one: drug sensitivity score for O=C1c2c(O)ccc(O)c2C(=O)c2c(NCCNCCO)ccc(NCCNCCO)c21 ?
OUTPUT: 0

INPUT: Quick one: drug sensitivity score for Cn1cncc1[C@@](N)(c1ccc(Cl)cc1)c1ccc2c(c1)c(-c1cccc(Cl)c1)cc(=O)n2C [Tipifarnib (Zarnestra)] ?
OUTPUT: 12.6

INPUT: Quick one: drug sensitivity score for Oc1nc(-c2ccc(C(F)(F)F)cc2)nc2c1CSCC2 ?
OUTPUT: 0.115

INPUT: Quick one: drug sensitivity score for Cc1c2oc3c(C)ccc(C(=O)N[C@@H]4C(=O)N[C@H](C(C)C)C(=O)N5CCC[C@H]5C(=O)N(C)CC(=O)N(C)[C@@H](C(C)C)C(=O)O[C@@H]4C)c3nc-2c(C(=O)N[C@@H]2C(=O)N[C@H](C(C)C)C(=O)N3CCC[C@H]3C(=O)N(C)CC(=O)N(C)[C@@H](C(C)C)C(=O)O[C@@H]2C)c(N)c1=O ?
OUTPUT: 20

More entries:
INPUT: Quick one: drug sensitivity score for CC(C)(C#N)c1cc(Cn2cncn2)cc(C(C)(C)C#N)c1 ?
OUTPUT: 0

INPUT: Quick one: drug sensitivity score for CN(Cc1cnc2nc(N)nc(N)c2n1)c1ccc(C(=O)N[C@@H](CCC(=O)O)C(=O)O)cc1 [Methotrexate] ?
OUTPUT: 3.04

INPUT: Quick one: drug sensitivity score for Nc1ncn([C@@H]2O[C@H](CO)[C@@H](O)[C@H]2O)c(=O)n1 ?
OUTPUT: 0

INPUT: Quick one: drug sensitivity score for O=C(Nc1ccncc1)C(=O)c1cn(Cc2ccc(Cl)cc2)c2ccccc12 ?
OUTPUT: 6.28

INPUT: Quick one: drug sensitivity score for C/C(=C\c1csc(C)n1)[C@@H]1C[C@@H]2O[C@]2(C)CCC[C@H](C)[C@H](O)[C@@H](C)C(=O)C(C)(C)[C@@H](O)CC(=O)N1 [Ixabepilone] ?
OUTPUT: 1

INPUT: Quick one: drug sensitivity score for COCC1(CO)C(=O)C2CCN1CC2 (centres undefined) ?
OUTPUT: 0

INPUT: Quick one: drug sensitivity score for C1CN1c1nc(N2CC2)nc(N2CC2)n1 ?
OUTPUT: 0

INPUT: Quick one: drug sensitivity score for O=C(CCBr)N1CCN(C(=O)CCBr)CC1 ?
OUTPUT: 0

INPUT: Quick one: drug sensitivity score for CC(=O)Nc1ccc(C(=O)Nc2ccccc2N)cc1 ?
OUTPUT: 0

* * *

viability inhibition at highest dose values, listed per item
test system: MCF-7 Tam1; test: viability inhibition at highest dose (% inhibition); higher = more growth inhibition; conditions: 4-OH-tamoxifen in medium 1 µM; 72 h
Counter-ions that a name gives are not always drawn.
Please give the numeric answer without any surrounding text.

These solved cases illustrate the format of a correct answer.
INPUT: Quick one: viability inhibition at highest dose for Nc1ccccc1NC(=O)c1ccc(CNC(=O)OCc2cccnc2)cc1 [Entinostat] (drug 10000 nM) ?
OUTPUT: 5.52

INPUT: Quick one: viability inhibition at highest dose for CC(C)C[C@H](NC(=O)[C@H](CCc1ccccc1)NC(=O)CN1CCOCC1)C(=O)N[C@@H](Cc1ccccc1)C(=O)N[C@@H](CC(C)C)C(=O)[C@@]1(C)CO1 [Carfilzomib] (drug 1000 nM) ?
OUTPUT: 92.7

More entries:
INPUT: Quick one: viability inhibition at highest dose for CC(=O)OC[C@H]1O[C@@H]([S-])[C@H](OC(C)=O)[C@@H](OC(C)=O)[C@@H]1OC(C)=O.CCP(CC)CC.[Au+] [Auranofin] (drug 2500 nM) ?
OUTPUT: 22.4

INPUT: Quick one: viability inhibition at highest dose for COC1=CC(c2cc3ccccc3[nH]2)=N/C1=C\c1[nH]c(C)cc1C [Obatoclax (GX15-070)] (drug 10000 nM) ?
OUTPUT: 51.1

INPUT: Quick one: viability inhibition at highest dose for NC(=O)Nc1cc(-c2cccc(F)c2)sc1C(=O)N[C@H]1CCCNC1 [AZD7762] (drug 1000 nM) ?
OUTPUT: 2.31

INPUT: Quick one: viability inhibition at highest dose for Cc1ccc([N+](=O)[O-])cc1S(=O)(=O)N(C)/N=C/c1cnc2ccc(Br)cn12 [PIK-75 (HCl)] (drug 10000 nM) ?
OUTPUT: 81.4
